test system: DMS-273 (Small Cell Lung Carcinoma); test: Bliss excess, mean over the matrix (fraction); higher = more synergy;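 note: after 72 h of two-drug dosing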
metric: Bliss excess
One number for each entry.

Worked examples, 6 molecules total:
>  <molecule>
COc1nnc2ccc(N3CCC(c4ccc(OCCN5CCN(C)C(=O)[C@H]5C)cc4)CC3)nn12 [AZD5153] + CCN(CCO)CCCOc1ccc2c(Nc3cc(CC(=O)Nc4cccc(F)c4)[nH]n3)ncnc2c1 [AZD2811] (first compound max 1 µM, 7x7, partner max 1 µM)

>  <measured-target>
DMS-273 (Small Cell Lung Carcinoma);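 note: after 72 h of two-drug dosing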

>  <measured-result>
-0.0409

$$$$
>  <molecule>
C[C@@H](c1ccc2nccn2c1)n1nnc2ncc(-c3cnn(C)c3)nc21 [Savolitinib] + CN(CC[C@H](CSC1=CC=CC=C1)NC2=C(C=C(C=C2)S(=O)(=O)NC(=O)C3=CC=C(C=C3)N4CCC(CC4)[C@H](C5=CC=CC=C5C6=CC=C(C=C6)Cl)O)S(=O)(=O)C(F)(F)F)CCO [AZD4320] (first compound max 1 µM, 7x7, partner max 1 µM)

>  <measured-target>
DMS-273 (Small Cell Lung Carcinoma);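 note: after 72 h of two-drug dosing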

>  <measured-result>
-0.0126

$$$$
>  <molecule>
CC1(C)CCC(CN2CCN(c3ccc(C(=O)NS(=O)(=O)c4ccc(NCC5CCOCC5)c([N+](=O)[O-])c4)c(Oc4cnc5[nH]ccc5c4)c3)CC2)=C(c2ccc(Cl)cc2)C1 [Venetoclax] + CN(C)CCCOc1ccc(-c2ccc3ncc4c(c3c2)n(C2CCOCC2)c(=O)n4C)cn1 [AZD0156] (first compound max 1 µM, 7x7, partner max 1 µM)

>  <measured-target>
DMS-273 (Small Cell Lung Carcinoma);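 note: after 72 h of two-drug dosing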

>  <measured-result>
0.0156

$$$$
>  <molecule>
CC1(C)CCC(CN2CCN(c3ccc(C(=O)NS(=O)(=O)c4ccc(NCC5CCOCC5)c([N+](=O)[O-])c4)c(Oc4cnc5[nH]ccc5c4)c3)CC2)=C(c2ccc(Cl)cc2)C1 [Venetoclax] + C[C@@H](Nc1cc(F)cc(F)c1)c1cc(C(=O)N(C)C)cc2c(=O)cc(N3CCOCC3)oc12 [AZD8186] (first compound max 1 µM, 7x7, partner max 3 µM)

>  <measured-target>
DMS-273 (Small Cell Lung Carcinoma);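 note: after 72 h of two-drug dosing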

>  <measured-result>
0.0274

$$$$
>  <molecule>
NC1(C(=O)N[C@@H](CCO)c2ccc(Cl)cc2)CCN(c2ncnc3[nH]ccc23)CC1 [Capivasertib] + CCN(CCO)CCCOc1ccc2c(Nc3cc(CC(=O)Nc4cccc(F)c4)[nH]n3)ncnc2c1 [AZD2811] (first compound max 10 µM, 7x7, partner max 1 µM)

>  <measured-target>
DMS-273 (Small Cell Lung Carcinoma);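 note: after 72 h of two-drug dosing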

>  <measured-result>
-0.0015

$$$$
>  <molecule>
Cn1cnc2c(F)c(Nc3ccc(Br)cc3Cl)c(C(=O)NOCCO)cc21 [Selumetinib] + CCN(CCO)CCCOc1ccc2c(Nc3cc(CC(=O)Nc4cccc(F)c4)[nH]n3)ncnc2c1 [AZD2811] (first compound max 10 µM, 7x7, partner max 1 µM)

>  <measured-target>
DMS-273 (Small Cell Lung Carcinoma);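 note: after 72 h of two-drug dosing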

>  <measured-result>
-0.0144

$$$$

Documented Bliss excess of CC1(C)CCC(CN2CCN(c3ccc(C(=O)NS(=O)(=O)c4ccc(NCC5CCOCC5)c([N+](=O)[O-])c4)c(Oc4cnc5[nH]ccc5c4)c3)CC2)=C(c2ccc(Cl)cc2)C1 [Venetoclax] + COc1cc(Nc2ncc3c(n2)-c2ccc(Cl)cc2C(c2c(F)cccc2OC)=NC3)ccc1C(=O)O [Alisertib] (first compound max 1 µM, 7x7, partner max 10 µM) : 0.0086
